- Read-out: Lipase C (LIPC), LIPC (gene 3990)
- test description: LTEA_HepaRG_LIPC: Life Technologies and Expression Analysis (LTEA) Assay for Lipase C (LIPC) using HepaRG (AID 2283514)
- experimental context: mRNA level, 48 h; actives raise or lower the signal
- Procedure: LTEA_HepaRG is a cell based, multiplexed-readout assay that uses HepaRG, a human liver cell line, with measurements taken at 48 hours after chemical dosing on a 96-well plate.LTEA_HepaRG_LIPC is one of 102 assay component(s) measured in the LTEA HepaRG cell culture assay. It is a marker of Steatosis.Data from the assay component LTEA_HepaRG_LIPC was analyzed into 1 endpoint. […]
Active and inactive are the calls of the source. The calls were made as follows: active = hit-call score of the fitted dose curve at least 0.9, where 1 is the maximum; inactive = score below 0.9.
Pick one and only one: yes (1) for active, no (0) for inactive

Example results:
> print(dat)
                                   compound  label.value
1  CCC(C)OC(=O)N1CCCCC1CCO (stereo not given)       no (0)
2                        CCCOC(=O)NCCCN(C)C       no (0)
3  CCOC(=O)C(C)Oc1ccc(Oc2nc3ccc(Cl)cc3o2)cc1 (stereo not given)       no (0)
4  COC(=O)c1ccc(I)cc1S(=O)(=O)NC(=O)Nc1nc(C)nc(OC)n1       no (0)
5                c1ccc2[nH]c(-c3cscn3)nc2c1       no (0)

Inquiry: For O=C(c1ccc(O)cc1O)c1ccc(O)cc1O , which call appears in the assay record?
Reply text: no (0)

Inquiry: Repeat with CC(=O)[C@H]1CC[C@H]2[C@@H]3CCC4=CC(=O)CC[C@]4(C)[C@H]3CC[C@]12C
Reply text: yes (1)

Inquiry: Next up: CSC(=O)c1cccc2nnsc12
Reply text: no (0)

###

- Read-out: CYP2E1 (gene 1571)
- test description: LTEA_HepaRG_CYP2E1: Life Technologies and Expression Analysis (LTEA) Assay for CYP2E1 using HepaRG (AID 2283485)
- experimental context: mRNA level, 48 h; actives raise or lower the signal
The source made the active and inactive calls. How the source made its calls: active means hit-call score of the fitted dose curve at least 0.9, where 1 is the maximum; inactive means score below 0.9.
Pick from 1 (yes) = active, 0 (no) = inactive when you respond.

// known answers, use as guide
> print(dat)
                                   compound  label.value
1  C=CCOC(Cn1ccnc1)c1ccc(Cl)cc1Cl (centres undefined)      1 (yes)
2  C[C@]12CC[C@@H]3c4ccc(O)cc4C[C@@H](CCCCCCCCCS(=O)CCCC(F)(F)C(F)(F)F)[C@H]3[C@@H]1CC[C@@H]2O (some centres undefined)      1 (yes)
3  CCOC(=O)C(C)Oc1ccc(Oc2nc3ccc(Cl)cc3o2)cc1 (centres undefined)      1 (yes)
4  COC(=O)CSc1cc(N=c2sc(=O)n3n2CCCC3)c(F)cc1Cl      1 (yes)
5         O=C(O)C1(C(=O)Nc2ccc(Cl)cc2Cl)CC1      1 (yes)

Inquiry: # outcome recorded in this test, key = CCCOC(=O)c1ccc(C(=O)OCCC)nc1
Reply text: 0 (no)

###

- Read-out: CFLAR gene, CFLAR (gene 8837)
- test description: LTEA_HepaRG_CFLAR: Life Technologies and Expression Analysis (LTEA) Assay for CFLAR gene using HepaRG (AID 2283455)
- experimental context: mRNA level, 48 h; actives raise or lower the signal
- Description: LTEA_HepaRG is a cell based, multiplexed-readout assay that uses HepaRG, a human liver cell line, with measurements taken at 48 hours after chemical dosing on a 96-well plate.LTEA_HepaRG_CFLAR is one of 102 assay component(s) measured in the LTEA HepaRG cell culture assay. It is a marker of Cell proliferation, survival, death.Data from the assay component LTEA_HepaRG_CFLAR was analyzed into 1 endpoint. […]
Active and inactive are the calls of the source. How the source made its calls: active means hit-call score of the fitted dose curve at least 0.9, where 1 is the maximum; inactive means score below 0.9.
Select the correct class. Options are y (active), n (inactive) and nothing else.

Inquiry: Status in this test for N#CSCSc1nc2ccccc2s1 ?
Reply text: n

Inquiry: Also CCCCC(CC)COC(=O)c1ccccc1C(=O)O (stereo not given) ?
Reply text: n

Inquiry: Entry to check: CCOC(=O)C(C)Oc1ccc(Oc2cnc3cc(Cl)ccc3n2)cc1 (stereo not given)
Reply text: n

Inquiry: Repeat for the following molecule: COc1c(Cl)ccc(Cl)c1C(=O)O
Reply text: n

Inquiry: Same again, this time with CCOC(=O)NCCOc1ccc(Oc2ccccc2)cc1
Reply text: n

Inquiry: Now consider COCCO and answer again.
Reply text: n

Inquiry: Check CCCCCOC(=O)COc1cc(N2C(=O)C3=C(CCCC3)C2=O)c(F)cc1Cl too.
Reply text: n

Inquiry: Continue with Oc1ccc(C(c2ccc(O)cc2)C(Cl)(Cl)Cl)cc1
Reply text: n

Inquiry: Continue with CCOC(=O)COc1cc(-n2ncc(C(F)(F)F)c(C)c2=O)c(F)cc1Cl
Reply text: n

Inquiry: Likewise for O=C(c1ccccc1)C1CCCCC1 ?
Reply text: n

Inquiry: Can you handle CCCCC(CC)CN1C(=O)C2C3C=CC(C3)C2C1=O (stereo not given) next?
Reply text: n

Inquiry: Lookup C[C@]12C[C@H](O)[C@H]3[C@@H](CCC4=CC(=O)CC[C@@]43C)[C@@H]1CC[C@@H]2C(=O)CO
Reply text: n

Inquiry: Also need CCCCCCC(C)OC(=O)COc1nc(F)c(Cl)c(N)c1Cl (stereo not given) , thanks.
Reply text: n

Inquiry: Follow-up entry: C=CCOC(Cn1ccnc1)c1ccc(Cl)cc1Cl (stereo not given)
Reply text: y

Inquiry: Follow-up item: CC(C)CCCCCCc1ccc(O)cc1
Reply text: n

Inquiry: Item: COC(=O)CSc1cc(N=c2sc(=O)n3n2CCCC3)c(F)cc1Cl
Reply text: n

Inquiry: # repeat for CCCN(CCC)c1c([N+](=O)[O-])cc(C(F)(F)F)c(N)c1[N+](=O)[O-]
Reply text: n

Inquiry: Also need OB(O)O , thanks.
Reply text: n

Inquiry: Input S=C([S-])NCCNC(=S)[S-].[Mn+2]
Reply text: y

Inquiry: Also CCOC(=O)c1ccc(O)cc1 ?
Reply text: n
